- target_of_assay: Tlp11-LBD homologue (WP_199770133.1, residues 31-330)
- assay_details: MST of Tlp11-LBD homologue
- measurement_context: H. mesocricetorum LBD
- Experimental: The His-tag dye (MO-L018 RED-tris-NTA, NanoTemper, Germany) was adjusted to a final concentration of 25 nM and used to label the purified protein with a His-tag. The compound was diluted to a series of concentrations in phosphate-buffered saline ([Duan et al., 2023]) with 0.05% Tween 20 (PBS-T) buffer and mixed in a ratio of 1:1 with protein. […] Thermophoresis was measured using a Monolith™ NT.115 (NanoTemper) instrument, with 40% excitation and 40% MST power configuration. […]
endpoint_label: Kd

[[record]]
compound = "COC(=O)C(C)=O [methyl pyruvate, Methyl pyruvate]"
result = "1200 µM"


----------
- target_of_assay: Tlp11-LBD homologue (WP_257425542.1, residues 31-331)
- assay_details: MST of Tlp11-LBD homologue
- measurement_context: C. upsaliensis LBD
pKd: −log10 of the molar value.
endpoint_label: pKd

[[record]]
compound = "COC(=O)C(C)=O [methyl pyruvate, Methyl pyruvate]"
result = 2.72


----------
- target_of_assay: Tlp11-LBD homologue (WP_201459806.1, residues 32-332)
- assay_details: MST of Tlp11-LBD homologue
- measurement_context: C. coli LBD
endpoint_label: Kd (µM)

[[record]]
compound = "COC(=O)C(C)=O [methyl pyruvate, Methyl pyruvate]"
result = 1400


----------
- target_of_assay: Tlp11-LBD
- assay_details: Microscale thermophoresis (MST) of Tlp11-LBD
- Format: binding, C. jejuni ATCC 33560
- measurement_context: 250 nM protein, read-out: Kd of Tlp11-LBD binding
- Method: The His-tag dye (MO-L018 RED-tris-NTA, NanoTemper, Germany) was adjusted to a final concentration of 25 nM and used to label the purified protein with a His-tag. […] Thermophoresis was measured using a Monolith™ NT.115 (NanoTemper) instrument, with 40% excitation and 40% MST power configuration. […] MST quantifies interaction affinities by detecting the direct movement of fluorescent molecules along temperature gradients in capillaries. […]
endpoint_label: Kd (mM)

[[record]]
compound = "CCOC(=O)C(C)=O [ethyl pyruvate, Ethyl pyruvate]"
endpoint_label = "Kd"
result = 2.36


----------
- target_of_assay: Tlp11-LBD
- assay_details: Microscale thermophoresis (MST) of Tlp11-LBD
- Format: binding, C. jejuni ATCC 33560
- measurement_context: Tlp11-LBD saturated with 5 mM quinoline, read-out: Kd of Tlp11-LBD interacting with methyl pyruvate
endpoint_label: Kd (mM)

[[record]]
compound = "COC(=O)C(C)=O [methyl pyruvate, Methyl pyruvate]"
result = 3.9

